tested on: CP335; test: qHTS profiling for inhibitors of Plasmodium falciparum proliferation (AID 504749); note: nearly all actives have a fitted effect of over 60% in size; conditions: P. falciparum in erythrocytes, SYBR Green DNA, 72 h; series mostly up to 28.7 µM
Results filed as inconclusive are left out. The source made the active and inactive calls. Calls come from the whole dose curve; as a rule, active = well fitted inhibition curve with a large enough effect; inconclusive = small, poorly fitted or top-dose-only effect; inactive = flat fitted curve, though single readings scatter.
Response enum: TRUE (active), FALSE (inactive)

COMPOUND	CAT
CCC(=O)O[C@]1(C(=O)CCl)[C@@H](C)CC2C3C[C@H](F)C4=CC(=O)C=CC4(C)[C@@]3(F)C(O)CC21C (stereo partly specified)	TRUE
CO/N=C(/C(=O)N[C@@H]1C(=O)N2C(C(=O)O)=C(CSc3nnnn3C)CS[C@H]12)c1csc(N)n1	FALSE
CC1(C)O[C@@H]2C[C@H]3[C@@H]4CCC5=CC(=O)C=C[C@]5(C)[C@H]4C(O)C[C@]3(C)[C@]2(C(=O)CO)O1 (stereo partly specified)	FALSE

Short answer needed: outcome of this test for CC(c1ncncc1F)[C@](O)(Cn1cncn1)c1ccc(F)cc1F (stereo partly specified) ?
FALSE

###

Provide the reported activity, negative = inhibition of each item.
assay: Stat Signaling Pathway (AID 446); settings: ME-180 (cervical carcinoma) SIE beta-lactamase reporter, IL-6 stimulated, 5 h; at 17.2 µM (top of the series) unless noted;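 note: ME-180 cervical cancer cells given 40 pM IL-6 alongside compound; SIE-controlled beta-lactamase reporter measured as 460/530 nm FRET emission ratio; % is set by controls: 0 for no effect and ±100 for the full control effect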
Inconclusive results are not listed. Activity calls are given as the source filed them. The call rests on the fitted dose curve; in most records, active means well fitted curve in either direction with a large enough effect (not every such curve was filed as active); inconclusive means small, poorly fitted or top-dose-only effect, or another doubt; inactive means flat fitted curve, though single readings scatter.

In the examples that follow, each entry is paired with its recorded activity, negative = inhibition.
COMPOUND	activity, negative = inhibition
CC(C)(C)NCC(=O)c1c[nH]c2ccccc12	14.8% (inactive)
CCOc1c(C)cc2[nH]c(CCC(=O)O)nc2c1C	7.03% (inactive)
Cc1ccc(Cn2ncc3c(N4CCOCC4)ncnc32)cc1	3.94% (inactive)

Each of the following entries comes with a recorded value; kindly state activity, negative = inhibition for each.
1. COC(=O)c1cc(=O)n2c(-c3ccc(OC)cc3)csc2n1
2. CCn1nc(NC(=O)c2ccco2)c2cc3ccccc3nc21
3. CCOc1ccc(-n2c(SCc3ccc(C#N)cc3)nnc2-c2cccnc2)cc1
4. CCOC(=O)C1CCN(c2nc3ccccc3nc2C(C#N)C(=O)OC(C)C)CC1 (stereo not given)
5. CC(=O)Nc1cc2c(cc1Br)OCCO2
6. COc1cc(/C=N/n2c(C)nnc2C)cc(OC)c1OC

["5.85% (inactive)", "-7.47% (inactive)", "-13.6% (inactive)", "-8.74% (inactive)", "-0.829% (inactive)", "-4.5% (inactive)"]

###

assay: S16 Schwann cell PMP22 intronic element beta-lactamase assay (AID 624044); settings: S16 rat Schwann cells, PMP22 element beta-lactamase FRET, 24 h; note: nearly all actives have a fitted effect of over 15% in size
Inconclusive results are not listed. Calls of active or inactive are those of the source. The call rests on the fitted dose curve.
In this exercise, the only acceptable responses are active, inactive

Outcome logged for Nc1nc(F)nc2c1ncn2[C@@H]1O[C@H](CO)[C@@H](O)[C@H]1O in this assay:
inactive

What outcome does the record of this test show for C=C1NC(=O)c2cc(CN(C)c3ccc(C(=O)N[C@@H](CCC(=O)O)C(=O)O)s3)ccc2N1 ?
active

Per the records of this test, what outcome belongs to C=NC(C(=O)NC1C(=O)N2C1SC(C)(C)C2C(=O)O)c1ccccc1 (stereo not given) ?
inactive

###

Tested on: N140
Assay: qHTS profiling for inhibitors of Plasmodium falciparum proliferation (AID 504749); note: nearly all actives have a fitted effect of over 60% in size
Conditions: P. falciparum in erythrocytes, SYBR Green DNA, 72 h; series mostly up to 28.7 µM
Protocol: NIH National Institute of Allergy and Infectious Diseases [NIAID] NIH Chemical Genomics Center [NCGC] […] Because mature erythrocytes lack DNA, only Plasmodium-derived DNA is detected. NCGC Assay Protocol Summary: The SYBR Green viability assay was adapted from a method described previously (Plouffe et al., 2008). […] The following morning, fluorescence intensity at 485(14) nm excitation and 535(25) nm emission wavelengths was measured on an EnVision (Perkin Elmer) plate reader. […]
Inconclusive results are not listed. Active and inactive are the calls of the source. The call rests on the fitted dose curve; in most records, active means well fitted inhibition curve with a large enough effect; inconclusive means small, poorly fitted or top-dose-only effect; inactive means flat fitted curve, though single readings scatter.
Can you answer with just one of these options? 1 for active, 0 for inactive

Check out these entries, answers already filled in.
COMPOUND	CAT
NC(=O)C1CC2(NC(=O)NC2=O)c2cc(F)ccc2O1 (stereo not drawn)	0
C#C[C@@]1(O)CC[C@@H]2[C@H]3CCC4=C/C(=N\O)CC[C@H]4[C@@H]3CC[C@]21CC	0
CC[C@]1([C@H]2O[C@@H]([C@@H]3O[C@](O)(CO)[C@@H](C)C[C@H]3C)C[C@H]2C)CC[C@@H]([C@]2(C)CC[C@@]3(C[C@@H](O)[C@@H](C)[C@@H]([C@H](C)[C@H](OC)[C@H](C)C(=O)O)O3)O2)O1	1
COc1cc(/C=C2\CCC/C(=C\c3ccc(O)c(OC)c3)C2=O)ccc1O	1
CC1CN(c2c(F)c(N)c3c(=O)c(C(=O)O)cn(C4CC4)c3c2F)CC(C)N1 (stereo not drawn)	0
Nc1nc2[nH]cc(CCc3ccc(C(=O)NC(CCC(=O)O)C(=O)O)cc3)c2c(=O)[nH]1 (stereo not drawn)	1
C/C(=C(/CCOC(=O)C(C)C)SS/C(CCOC(=O)C(C)C)=C(\C)N(C=O)Cc1cnc(C)nc1N)N(C=O)Cc1cnc(C)nc1N	0

Moving on to the next compound.
Called result for CC(=O)OCC(=O)[C@@]1(O)CCC2C3C[C@H](C)C4=CC(=O)C=CC4(C)C3C(O)CC21C (stereo partly drawn)
0

###

molecular target: Glucocorticoid receptor (Homo sapiens) (UniProt P04150); assay: GR-GFP Redistribution (AID 450); details: U2OS GR-GFP nuclear translocation, laser cytometry, 2 h; series mostly up to 20.6 µM; note: potency is the fitted concentration of half-maximal effect
Sequence (P04150 whole entry, looked up): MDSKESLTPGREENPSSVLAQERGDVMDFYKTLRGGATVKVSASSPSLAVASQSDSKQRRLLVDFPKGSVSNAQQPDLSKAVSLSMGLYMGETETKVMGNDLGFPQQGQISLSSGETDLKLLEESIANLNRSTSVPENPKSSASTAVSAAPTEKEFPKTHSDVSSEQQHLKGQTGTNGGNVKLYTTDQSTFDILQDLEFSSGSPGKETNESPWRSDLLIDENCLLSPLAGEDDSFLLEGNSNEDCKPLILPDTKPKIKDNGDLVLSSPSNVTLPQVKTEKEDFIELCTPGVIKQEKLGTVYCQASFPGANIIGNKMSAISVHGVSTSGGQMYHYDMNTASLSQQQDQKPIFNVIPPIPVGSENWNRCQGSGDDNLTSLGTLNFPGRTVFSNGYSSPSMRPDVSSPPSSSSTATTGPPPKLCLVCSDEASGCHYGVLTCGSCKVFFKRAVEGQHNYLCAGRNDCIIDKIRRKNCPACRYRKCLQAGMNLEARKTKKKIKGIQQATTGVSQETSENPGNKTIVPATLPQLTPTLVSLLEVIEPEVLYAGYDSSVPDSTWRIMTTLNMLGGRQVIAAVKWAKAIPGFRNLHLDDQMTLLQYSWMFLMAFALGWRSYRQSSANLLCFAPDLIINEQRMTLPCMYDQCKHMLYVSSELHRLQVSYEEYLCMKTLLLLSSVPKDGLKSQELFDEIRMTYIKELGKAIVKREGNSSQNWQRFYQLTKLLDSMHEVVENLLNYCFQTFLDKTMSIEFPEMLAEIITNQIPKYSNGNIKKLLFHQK
Calls of active or inactive are those of the source.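 Rule for the calls: active = compounds whose dose series gives a full or clear partial fitted curve of increased nuclear translocation; inconclusive = weak partial curve or effect only at the top dose; inactive = no dose-dependent translocation response.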
Would you mind telling me the reported Potency of each entry?

In the examples that follow, each entry is paired with its recorded Potency.
COMPOUND	Potency
COc1ccc(CN(C#N)c2nc(SC)nc(N(C)C)n2)cc1	> 20.6 µM (inactive)
CC(C)C[C@H]1C(=O)N2CCC[C@H]2[C@]2(O)O[C@](NC(=O)[C@@H]3C=C4c5cccc6[nH]c(Br)c(c56)CC4N(C)C3)(C(C)C)C(=O)N12 (stereo partly specified)	> 20.6 µM (inactive)
COc1ccc2c(c1)[nH]c1c(=O)n(CCN(C)C)cnc12	> 20.6 µM (inactive)

Please report Potency for every entry that follows.
1. O[C@@H]1CC[C@H]2Cc3ccccc3N=C21
2. O=C(NCc1cccnc1)c1ccc(=O)oc1

> 46 µM (inactive)
> 20.6 µM (inactive)

Please look at the items below and tell me Potency for each one, in order.
1. OC[C@@H]1O[C@@H](n2cnc3cncnc32)[C@@H](O)[C@H]1O
2. COc1ccccc1N1CCN(CCOc2c(OC)cccc2OC)CC1
3. COc1ccc(Cn2ccnc2)cc1Br
4. C[C@@H]1C[C@H](Nc2ccccc2)c2ccccc2N1C(=O)c1cccnc1
5. Cc1c(C(=O)O)c(=S)sn1CCOc1ccccc1

["> 46 µM (inactive)", "> 20.6 µM (inactive)", "> 20.6 µM (inactive)", "> 20.6 µM (inactive)", "> 20.6 µM (inactive)"]

Please look up its Potency: CCOC(=O)CSc1nc2sc3c(c2c(=O)[nH]1)CC(C)(C)OC3
> 20.6 µM (inactive)

###

test system: P94_40; experiment: qHTS profiling for inhibitors of Plasmodium falciparum proliferation (AID 504749); note: nearly all actives have a fitted effect of over 60% in size; conditions: P. falciparum in erythrocytes, SYBR Green DNA, 72 h; series mostly up to 28.7 µM
Inconclusive results are not listed. Active and inactive are the calls of the source. Calls follow the shape of the dose curve; as a rule, active = well fitted inhibition curve with a large enough effect; inconclusive = small, poorly fitted or top-dose-only effect; inactive = flat fitted curve, though single readings scatter.
API: response.call in active, inactive

COMPOUND	CAT
CC[C@H](C)[C@H]1O[C@]2(CC[C@@H]1C)C[C@@H]1C[C@@H](C/C=C(\C)[C@H](O[C@@H]3C[C@H](OC)[C@H](O[C@@H]4C[C@H](OC)[C@@H](O)[C@H](C)O4)[C@H](C)O3)[C@@H](C)/C=C/C=C3\CO[C@@H]4[C@H](O)C(C)=C[C@@H](C(=O)O1)[C@]34O)O2	active
CC(=O)C1(O)Cc2c(O)c3c(c(O)c2C(OC2CC(N)C(O)C(C)O2)C1)C(=O)c1c(O)cccc1C3=O (stereo not given)	active
NC(=O)c1ncn(C2OC(CO)C(O)C2O)c1N (stereo not given)	inactive
Clc1ccc(CS[C@@H](Cn2ccnc2)c2ccc(Cl)cc2Cl)cc1	active
CCCCCCCCCCCCCCCC(=O)OCC(COP(=O)(O)OCC[N+](C)(C)C)OC(=O)CCCCCCCCCCCCCCC (stereo not given)	inactive
O=c1ccn(C2OC(COP(=O)(O)OC3C(CO)OC(n4ccc(=O)[nH]c4=O)C3O)C(O)C2O)c(=O)[nH]1 (stereo not given)	inactive
CC1OC(OC2CCC3(C)C(CCC4C3CC(O)C3(C)C(C5=CC(=O)OC5)CCC43O)C2)CC(O)C1OC1CC(O)C(OC2CC(O)C(OC3OC(CO)C(O)C(O)C3O)C(C)O2)C(C)O1 (stereo not given)	inactive
OCC1OC(O)C(O)C(O)C1O (stereo not given)	inactive
Nc1nc(/C(=C/CC(=O)O)C(=O)NC2C(=O)N3C(C(=O)O)=CCSC23)cs1 (stereo not given)	inactive
C=C[C@H]1CN2CCC1C[C@H]2[C@H](O)c1ccnc2ccc(OC)cc12 (stereo not given in full)	active

In this assay, the call recorded for CC[C@@]1(O)C[C@H](O[C@H]2C[C@@H](N(C)C)[C@@H](O[C@H]3C[C@@H](O)[C@@H](O[C@H]4CCC(=O)[C@@H](C)O4)[C@@H](C)O3)[C@@H](C)O2)c2c(cc3c(c2O)C(=O)c2c(O)cccc2C3=O)[C@H]1C(=O)OC was what?
active

# lookup: test call for CC[C@@]1(O)CC2CN(CCc3c([nH]c4ccccc34)[C@](C(=O)OC)(c3cc4c(cc3OC)N(C)C3[C@@](O)(C(=O)OC)C(OC(C)=O)[C@]5(CC)C=CCN6CC[C@@]43C65)C2)C1 (stereo not given in full)
active

Outcome? CC[C@@H](C)C(N)C(=O)O (stereo not given in full)
inactive

Returns: the outcome recorded for O=c1[nH]c(=O)n(C2C[C@H](O)[C@@H](CO)O2)cc1C(F)(F)F (stereo not given in full) in this assay.
inactive

Each compound tested received a call. Report the one for CCCC(=O)Nc1c(I)cc(I)c(C[C@H](CC)C(=O)O)c1I .
inactive

All values here come from PubChem BioAssay (NCATS).
